Target: T1, LAG3 Protein, Human, Recombinant (His Tag) (Sino Biological Catalog No. 16498-H08H) (human, UniProt P18627 23-450)
T1 construct: Bought protein; also called hLAG3-His; LAG3-His; not shown: His tag
T1 sequence (looked up): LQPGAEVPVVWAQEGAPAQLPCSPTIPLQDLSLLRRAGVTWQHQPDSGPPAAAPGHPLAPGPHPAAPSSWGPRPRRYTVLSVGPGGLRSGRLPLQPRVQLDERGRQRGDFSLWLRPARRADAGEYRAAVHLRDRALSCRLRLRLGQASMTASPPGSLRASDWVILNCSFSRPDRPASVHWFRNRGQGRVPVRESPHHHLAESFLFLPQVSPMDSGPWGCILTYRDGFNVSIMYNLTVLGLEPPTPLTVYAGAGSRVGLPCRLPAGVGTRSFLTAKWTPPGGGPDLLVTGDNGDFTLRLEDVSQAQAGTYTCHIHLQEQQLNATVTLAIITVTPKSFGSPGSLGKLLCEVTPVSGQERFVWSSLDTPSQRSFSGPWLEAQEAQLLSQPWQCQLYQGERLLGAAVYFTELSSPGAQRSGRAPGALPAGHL
Experiment: SPR binning on LAG3-His; competitor 18
Procedure: The chip surface was regenerated after each cycle with 25 mM NaOH followed by HBS-EP wash provided in the kit.
Criterion: RU meeting or surpassing -10 RU. Met: YES. Not met: NO.

Use these answered entries as a reference point.
# BINDER, DISCRETE_LABEL
data = [
    ("sdAb No. 21 (VHH, Fc of the tested form not described; also called sdAb 21; not shown: Fc part implied by anti-human Fc capture) VHH: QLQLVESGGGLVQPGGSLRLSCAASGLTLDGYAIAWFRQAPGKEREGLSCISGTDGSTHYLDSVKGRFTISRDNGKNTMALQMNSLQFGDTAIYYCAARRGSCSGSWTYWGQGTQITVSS", "NO"),
    ("sdAb No. 24 (VHH, Fc of the tested form not described; also called sdAb 24; not shown: Fc part implied by anti-human Fc capture) VHH: QLQLVESGGGLVQPGGSLRLSCAASGFTLNEHAIGWFRQAPGKEREGVSCISSSDGSTYYHDSVKGRFTMSRDDAKNTVYLQMNSLKAEDTAIYYCAAALGRDCQGGQWKTSSWGQGTQVTVSS", "NO"),
    ("sdAb No. 20 (VHH, Fc of the tested form not described; also called sdAb 20; not shown: Fc part implied by anti-human Fc capture) VHH: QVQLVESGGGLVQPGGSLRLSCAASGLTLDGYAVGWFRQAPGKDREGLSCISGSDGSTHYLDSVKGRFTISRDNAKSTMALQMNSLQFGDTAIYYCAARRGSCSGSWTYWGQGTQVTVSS", "NO"),
    ("sdAb No. 25 (VHH, Fc of the tested form not described; also called sdAb 25; sdAb #25; not shown: Fc part implied by anti-human Fc capture and anti-human IgG Fc detection) VHH: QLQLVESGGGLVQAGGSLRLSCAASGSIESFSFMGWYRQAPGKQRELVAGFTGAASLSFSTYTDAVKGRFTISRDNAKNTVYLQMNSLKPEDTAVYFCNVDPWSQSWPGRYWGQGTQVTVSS", "YES"),
]

Switching to the query record.
Exercise: Would you say sdAb No. 73 (VHH, Fc not described; also called sdAb 73; not shown: Fc part implied by anti-human Fc capture) VHH: QVQLVESGGGLVQPGGSLKLSCTASGFTLDYYAIAWFRQAPGKEREAVSCISSSDGSTRYADSVKGRFTISRDNAKNTVYLQMNSLKPEDTAVYYCAADPYGDCRGPYDYWGQGTQVTVSS shows RU at minimum -10 RU?
Key: NO
